Method: Example 13: serum capromorelin and pharmacokinetics
Type: in vivo, cats with compromised kidney function
Details: cat, serum; Group 1, intravenous 0.75 mg/kg, several of the test animals
Readout type: clearance (mL/min/kg)

>>> df
                                        mol  readout_type  readout_units  experimental_result
0  CN1N=C2CCN(C(=O)[C@@H](COCc3ccccc3)NC(=O)C(C)(C)N)C[C@@]2(Cc2ccccc2)C1=O.O=C(O)C(O)C(O)C(=O)O     clearance      mL/min/kg                   20

###

Method: Example 12 cat probe formulation study and pharmacokinetic analysis
Type: in vivo, cats
Details: cat, serum; Group 1, intravenous 0.75 mg/kg; read-out: terminal half-life of capromorelin (converted)
Readout type: half-life

In [3]: df
Out[3]:
                                        mol  readout_type  experimental_result
0  CN1N=C2CCN(C(=O)[C@@H](COCc3ccccc3)NC(=O)C(C)(C)N)C[C@@]2(Cc2ccccc2)C1=O.O=C(O)C(O)C(O)C(=O)O     half-life              ~54 min
